FYI, the data here is from patent US20260297135.

# target-of-assay: T1, integrin αvβ8 (human, UniProt P06756)
# T1 chain 1: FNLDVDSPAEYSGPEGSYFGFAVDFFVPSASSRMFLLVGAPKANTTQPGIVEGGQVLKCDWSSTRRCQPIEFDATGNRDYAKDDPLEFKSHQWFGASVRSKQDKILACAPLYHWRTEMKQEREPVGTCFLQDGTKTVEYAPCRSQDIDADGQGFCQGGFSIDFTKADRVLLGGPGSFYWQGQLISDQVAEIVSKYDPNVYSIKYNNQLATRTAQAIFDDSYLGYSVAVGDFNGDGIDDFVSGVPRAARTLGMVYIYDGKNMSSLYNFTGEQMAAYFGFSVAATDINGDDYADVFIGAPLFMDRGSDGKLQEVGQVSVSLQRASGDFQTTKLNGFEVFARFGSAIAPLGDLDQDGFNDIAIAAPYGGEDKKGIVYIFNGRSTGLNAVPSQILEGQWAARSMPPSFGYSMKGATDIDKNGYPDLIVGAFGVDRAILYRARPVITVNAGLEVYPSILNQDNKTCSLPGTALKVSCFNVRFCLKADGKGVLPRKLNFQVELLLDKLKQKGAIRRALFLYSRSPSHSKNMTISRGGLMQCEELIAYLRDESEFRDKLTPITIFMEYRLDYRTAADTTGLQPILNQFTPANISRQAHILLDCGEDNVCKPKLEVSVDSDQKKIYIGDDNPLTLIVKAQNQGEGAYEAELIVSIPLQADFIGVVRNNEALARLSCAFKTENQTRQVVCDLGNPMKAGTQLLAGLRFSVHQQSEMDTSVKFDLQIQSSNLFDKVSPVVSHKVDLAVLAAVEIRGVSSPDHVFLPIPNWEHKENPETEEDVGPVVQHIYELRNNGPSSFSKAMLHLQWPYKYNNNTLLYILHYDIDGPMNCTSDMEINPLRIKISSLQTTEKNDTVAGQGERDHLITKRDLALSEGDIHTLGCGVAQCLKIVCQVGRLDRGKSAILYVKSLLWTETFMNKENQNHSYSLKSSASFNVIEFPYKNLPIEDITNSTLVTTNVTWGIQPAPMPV
# T1 chain 2: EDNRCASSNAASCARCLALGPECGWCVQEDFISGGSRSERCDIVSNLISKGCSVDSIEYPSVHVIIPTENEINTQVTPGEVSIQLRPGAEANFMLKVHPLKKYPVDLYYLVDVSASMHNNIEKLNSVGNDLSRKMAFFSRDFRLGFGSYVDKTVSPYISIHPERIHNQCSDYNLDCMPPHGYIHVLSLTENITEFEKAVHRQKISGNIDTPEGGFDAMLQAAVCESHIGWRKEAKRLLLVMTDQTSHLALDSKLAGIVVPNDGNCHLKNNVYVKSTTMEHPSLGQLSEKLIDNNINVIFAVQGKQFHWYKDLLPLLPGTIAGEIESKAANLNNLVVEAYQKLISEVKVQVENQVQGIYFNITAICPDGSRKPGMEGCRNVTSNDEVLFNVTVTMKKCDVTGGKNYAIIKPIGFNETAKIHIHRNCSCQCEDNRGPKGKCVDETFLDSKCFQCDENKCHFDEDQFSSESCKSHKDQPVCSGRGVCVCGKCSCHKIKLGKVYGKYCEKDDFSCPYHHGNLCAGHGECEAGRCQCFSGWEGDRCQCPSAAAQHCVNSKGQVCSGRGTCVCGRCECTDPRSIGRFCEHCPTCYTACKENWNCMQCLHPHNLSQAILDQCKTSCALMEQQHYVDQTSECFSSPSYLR
# test-method-notes: BLI
pKd: −log10 of the molar value.
measured-property: pKd

INSERT INTO results (binder, measured_property, readout_number) VALUES
  ('B8_BP_dslf (avb8_3) (designed binder) TKCVVRFNFRGDMAVYALKAVKDHLKKEGPHWNITTHNDDEVYLVVRGIHESDAKRIAKWVESTIPGISVETQCD', 'pKd', 8.72),
  ('B8_BP-LATY (avb8_3_LATY) (designed binder) TKCVVRFNFRGDLATYALKAVKDHLKKEGPHWNITTHNDDEVYLVVRGIHESDAKRIAKWVESTIPGISVETQCD', 'pKd', 9.30);
